- System: MRSA ATCC-B AA-1708
- TEST NAME: MIC, agar dilution, MRSA ATCC-BAA-1708 (mupA positive)
- Type: cell-based
- CONDITION NOTES: Staphylococcus aureus; MRSA ATCC-BAA-1708, mupA positive (mupirocin resistance); read-out: MIC
Reported MIC values are given for each entry in this list.
// note: answer is a bare numeric in µg/mL

Example cases with answers are listed next.
COc1ccc2c(c[n+]3ccc4cc5c(c6c(Cc7ccc(F)cc7F)cc2c3c46)OCO5)c1O [13c] : 4
COc1ccc2c(c[n+]3ccc4cc5c(c6c(Cc7cccc(C)c7)cc2c3c46)OCO5)c1O [13h] : 4

Consider the additional compound presented here.
Lab entry: MRSA ATCC-B AA-1708 assay, compound COc1ccc2c(c[n+]3ccc4cc5c(c6c(Cc7ccc([N+](=O)[O-])cc7)cc2c3c46)OCO5)c1O [13r] , MIC = 4
